Where these numbers come from: ChEMBL document CHEMBL5724914

settings: human gut metagenome, 24 h, 2 µM; further: call rule not given here
quantity-measured: Bacterial Biotransformation

[
  {
    "compound": "COc1cc2nc(N3CCN(C(=O)C4COc5ccccc5O4)CC3)nc(N)c2cc1OC.CS(=O)(=O)O (centres undefined) [DOXAZOSIN MESYLATE]",
    "Bacterial Biotransformation": "Compound metabolized"
  },
  {
    "compound": "COc1ccc([C@@H]2Sc3ccccc3N(CCN(C)C)C(=O)[C@@H]2OC(C)=O)cc1",
    "Bacterial Biotransformation": "Compound metabolized"
  },
  {
    "compound": "COC(=O)[C@H](c1ccccc1Cl)N1CCc2sccc2C1.O=S(=O)(O)O [CLOPIDOGREL BISULFATE]",
    "Bacterial Biotransformation": "Compound metabolized"
  },
  {
    "compound": "Br.COc1ccc2c(c1)[C@]13CCCC[C@@H]1[C@H](C2)N(C)CC3.O [DEXTROMETHORPHAN HYDROBROMIDE]",
    "Bacterial Biotransformation": "Compound NOT metabolized"
  },
  {
    "compound": "CC(CCc1ccccc1)NCC(O)c1ccc(O)c(C(N)=O)c1 (centres undefined)",
    "Bacterial Biotransformation": "Compound NOT metabolized"
  }
]

Task: Endpoint output: Bacterial Biotransformation of CC(=O)O[C@]1(C(C)=O)CC[C@H]2[C@@H]3C=C(C)C4=CC(=O)CC[C@]4(C)[C@H]3CC[C@@]21C [MEGESTROL ACETATE] . Value?
Result: Compound metabolized

Task: Cool, now `OCCN(CCO)c1nc(N2CCCCC2)c2nc(N(CCO)CCO)nc(N3CCCCC3)c2n1`
Result: Compound metabolized

Task: Proceed to CC1Cc2ccccc2N1NC(=O)c1ccc(Cl)c(S(N)(=O)=O)c1 (centres undefined) [INDAPAMIDE]
Result: Compound NOT metabolized

Task: Try this compound too: `O=C(CCCN1CCC2(CC1)C(=O)NCN2c1ccccc1)c1ccc(F)cc1`
Result: Compound NOT metabolized

---

experiment: The drug is tested on WLS-010 corresponding to human gut metagenome with ENA study accession number: PRJEB37062 and ENA sample accession number: ERS12561743 for biotransformation under anaerobic condition. The drug concentrations were measured over 9 timepoints collected between 0 and 24 hours of incubation by liquid-chromatography-coupled mass spectrometry (LC–MS); conditions: 2 µM
quantity-measured: Bacterial Biotransformation

Would you please look over these solved cases?
[
  {
    "compound": "CC(C)(C)NC[C@H](O)COc1nsnc1N1CCOCC1.O=C(O)/C=C\\C(=O)O [TIMOLOL MALEATE]",
    "Bacterial Biotransformation": "Compound NOT metabolized"
  },
  {
    "compound": "CC(C)C[C@H]1C(=O)N2CCC[C@H]2[C@]2(O)O[C@](NC(=O)[C@@H]3C=C4c5cccc6[nH]c(Br)c(c56)C[C@H]4N(C)C3)(C(C)C)C(=O)N12.CS(=O)(=O)O [BROMOCRIPTINE MESYLATE]",
    "Bacterial Biotransformation": "Compound metabolized"
  },
  {
    "compound": "COc1cc2nc(N3CCN(C(=O)C4COc5ccccc5O4)CC3)nc(N)c2cc1OC.CS(=O)(=O)O (configuration not stated) [DOXAZOSIN MESYLATE]",
    "Bacterial Biotransformation": "Compound metabolized"
  },
  {
    "compound": "CCCN1C[C@H](CSC)C[C@@H]2c3cccc4[nH]cc(c34)C[C@H]21.CS(=O)(=O)O [PERGOLIDE MESYLATE]",
    "Bacterial Biotransformation": "Compound NOT metabolized"
  },
  {
    "compound": "COC(=O)C(c1ccccc1)C1CCCCN1 (configuration not stated) [METHYLPHENIDATE]",
    "Bacterial Biotransformation": "Compound NOT metabolized"
  },
  {
    "compound": "CCN(C)C(=O)Oc1cccc([C@H](C)N(C)C)c1.O=C(O)C(O)C(O)C(=O)O [RIVASTIGMINE TARTRATE]",
    "Bacterial Biotransformation": "Compound NOT metabolized"
  },
  {
    "compound": "CC(C)c1c(CN(C)C(C)Cc2ccccc2)n(C)n(-c2ccccc2)c1=O (configuration not stated)",
    "Bacterial Biotransformation": "Compound metabolized"
  },
  {
    "compound": "CC(C)(C)NCC(O)c1cc(Cl)c(N)c(Cl)c1 (configuration not stated)",
    "Bacterial Biotransformation": "Compound NOT metabolized"
  },
  {
    "compound": "CN(C)CCOC(C)(c1ccccc1)c1ccccn1.O=C(O)CCC(=O)O (configuration not stated) [DOXYLAMINE SUCCINATE]",
    "Bacterial Biotransformation": "Compound NOT metabolized"
  },
  {
    "compound": "C[N+]12CCC(CC1)C(OC(=O)C(O)(c1ccccc1)c1ccccc1)C2.[Br-] (configuration not stated) [CLIDINIUM BROMIDE]",
    "Bacterial Biotransformation": "Compound NOT metabolized"
  }
]

Task: Find the recorded Bacterial Biotransformation belonging to COc1cc2nc(N3CCN(C(=O)C4CCCO4)CC3)nc(N)c2cc1OC (configuration not stated) and report it.
Result: Compound NOT metabolized

Task: What about CC(=O)OCC(=O)NCCCOc1cccc(CN2CCCCC2)c1 [ROXATIDINE ACETATE] ?
Result: Compound metabolized

Task: Next entry: `N#Cc1ccc2c(c1)N(CCCN1CCC(O)CC1)c1ccccc1S2`
Result: Compound NOT metabolized

---

test: The drug is tested on Z-025 corresponding to rabbit gut metagenome with ENA study accession number: PRJEB37062 and ENA sample accession number: ERS12561824 for biotransformation under anaerobic condition. The drug concentrations were measured over 9 timepoints collected between 0 and 24 hours of incubation by liquid-chromatography-coupled mass spectrometry (LC–MS); conditions: 2 µM
quantity-measured: Bacterial Biotransformation

[
  {
    "compound": "CC(C)NCC(O)COc1ccc(CC(N)=O)cc1 (stereo unspecified) [ATENOLOL]",
    "Bacterial Biotransformation": "Compound NOT metabolized"
  },
  {
    "compound": "COC(=O)C(c1ccccc1)C1CCCCN1 (stereo unspecified) [METHYLPHENIDATE]",
    "Bacterial Biotransformation": "Compound NOT metabolized"
  },
  {
    "compound": "CCN(CC)CCNC(=O)c1cc(S(C)(=O)=O)ccc1OC [TIAPRIDE]",
    "Bacterial Biotransformation": "Compound NOT metabolized"
  },
  {
    "compound": "CCOc1ccc2nc(S(N)(=O)=O)sc2c1 [ETHOXZOLAMIDE]",
    "Bacterial Biotransformation": "Compound NOT metabolized"
  },
  {
    "compound": "CC(C)c1nc(N(C)S(C)(=O)=O)nc(-c2ccc(F)cc2)c1/C=C/[C@@H](O)C[C@@H](O)CC(=O)[O-].CC(C)c1nc(N(C)S(C)(=O)=O)nc(-c2ccc(F)cc2)c1/C=C/[C@@H](O)C[C@@H](O)CC(=O)[O-].[Ca+2] [ROSUVASTATIN CALCIUM]",
    "Bacterial Biotransformation": "Compound NOT metabolized"
  }
]

Task: For the compound shown here, O=C1C(CC[S+]([O-])c2ccccc2)C(=O)N(c2ccccc2)N1c1ccccc1 (stereo unspecified) [SULFINPYRAZONE] , give the reported Bacterial Biotransformation.
Result: Compound NOT metabolized

Task: Queued: Cc1ccccc1C(OCCN(C)C)c1ccccc1.O=C(O)CC(O)(CC(=O)O)C(=O)O (stereo unspecified) [ORPHENADRINE CITRATE]
Result: Compound metabolized

Task: And what about the compound N#Cc1ccc2[nH]cc(CCCCN3CCN(c4ccc5oc(C(N)=O)cc5c4)CC3)c2c1 [VILAZODONE] ?
Result: Compound NOT metabolized

Task: Ok, now OCCN(CCO)c1nc(N2CCCCC2)c2nc(N(CCO)CCO)nc(N3CCCCC3)c2n1 [DIPYRIDAMOLE]
Result: Compound NOT metabolized

---

conditions: human gut metagenome, 24 h, 2 µM
quantity-measured: Bacterial Biotransformation

[
  {
    "molecule": "O=C(NC(Cc1cc(=O)[nH]c2ccccc12)C(=O)O)c1ccc(Cl)cc1 (centres undefined) [REBAMIPIDE]",
    "result": "Compound NOT metabolized"
  },
  {
    "molecule": "CCN(CC)CCNC(=O)c1ccc(NC(C)=O)cc1 [ACECAINIDE]",
    "result": "Compound NOT metabolized"
  },
  {
    "molecule": "O=C([O-])C[C@H](O)C[C@H](O)/C=C/c1c(C2CC2)nc2ccccc2c1-c1ccc(F)cc1.O=C([O-])C[C@H](O)C[C@H](O)/C=C/c1c(C2CC2)nc2ccccc2c1-c1ccc(F)cc1.[Ca+2]",
    "result": "Compound metabolized"
  },
  {
    "molecule": "O=C(O)CCC(=O)O.O=C(O[C@H]1CN2CCC1CC2)N1CCc2ccccc2[C@@H]1c1ccccc1 [SOLIFENACIN SUCCINATE]",
    "result": "Compound metabolized"
  }
]
